So I've got a bunch of sequences here, and I need their self-splicing fitness (ln) values.
# Run Description: self-splicing fitness, log relative to wild type (ln ratio); higher = more splicing; Tetrahymena group I intron in knt gene, E. coli kanamycin selection, DiMSum; sequences stand for … in CUCUCU…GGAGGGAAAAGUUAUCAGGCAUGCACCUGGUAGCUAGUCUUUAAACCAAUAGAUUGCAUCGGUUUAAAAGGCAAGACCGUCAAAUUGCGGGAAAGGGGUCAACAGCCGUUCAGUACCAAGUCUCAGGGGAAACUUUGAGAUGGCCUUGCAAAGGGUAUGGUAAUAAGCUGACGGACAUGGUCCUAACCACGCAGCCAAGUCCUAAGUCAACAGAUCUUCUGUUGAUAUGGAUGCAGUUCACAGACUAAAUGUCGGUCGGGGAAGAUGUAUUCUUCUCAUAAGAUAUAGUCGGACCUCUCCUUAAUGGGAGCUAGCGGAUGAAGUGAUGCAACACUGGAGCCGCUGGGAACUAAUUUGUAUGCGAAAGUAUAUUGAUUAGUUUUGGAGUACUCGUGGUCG;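 note: selection with 25 µg/mL kanamycin versus none on LB agar overnight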
# Test Parameters: 30 °C
Answers are plain numbers.

Illustrative cases are given below, each with its answer.
INSERT INTO results (seq_string, observed) VALUES
  ('UUUAAGCAAUAUUACGAGCU', -2.94),
  ('ACUUAGCAAUAUUACGUUUG', -3.01);

// field: self-splicing fitness (ln); key: CAGUAGCAAUAUUACGCCUC ; value = -2.93

* * *

# Run Description: self-splicing fitness, log relative to wild type (ln ratio); higher = more splicing; Tetrahymena group I intron in knt gene, E. coli kanamycin selection, DiMSum; sequences stand for … in CUCUCU…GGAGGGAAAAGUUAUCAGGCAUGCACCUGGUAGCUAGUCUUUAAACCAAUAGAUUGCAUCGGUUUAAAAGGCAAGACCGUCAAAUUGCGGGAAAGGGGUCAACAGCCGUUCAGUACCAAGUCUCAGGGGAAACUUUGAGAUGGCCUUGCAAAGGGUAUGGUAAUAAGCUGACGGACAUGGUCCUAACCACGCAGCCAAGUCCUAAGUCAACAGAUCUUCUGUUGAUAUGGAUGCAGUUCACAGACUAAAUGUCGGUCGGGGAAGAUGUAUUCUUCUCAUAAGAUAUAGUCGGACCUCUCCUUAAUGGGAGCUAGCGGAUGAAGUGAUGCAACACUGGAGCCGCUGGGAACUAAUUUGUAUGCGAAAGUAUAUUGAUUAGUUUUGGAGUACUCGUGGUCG
# Test Parameters: 30 °C
Recorded Endpoint: self-splicing fitness (ln)
One number for each entry.

Illustrative cases are given below, each with its answer.
INSERT INTO assay_data (seq_string, recorded_endpoint, observed) VALUES
  ('AAACAGCAAUAUUACGGUAC', 'self-splicing fitness (ln)', -3.52),
  ('GGCCAGCAAUAUUACGUUUA', 'self-splicing fitness (ln)', -2.69),
  ('GGAUAGCAAUAUUACGAAGC', 'self-splicing fitness (ln)', -2.6),
  ('CUAGAGCAAUAUUACGGUAC', 'self-splicing fitness (ln)', -3.01);

I would be grateful if you could provide self-splicing fitness (ln) for each of the following entries.
1. AACCAGCAAUAUUACGAUAC
2. CCAUAGCAAUAUUACGACGC
3. AUUAAGCAAUAUUACGACUA
4. ACAUAGCAAUAUUACGAACC

1: -2.38; 2: -2.27; 3: -1.05; 4: -1.16
